- Tested System: T1, Soluble heterodimeric CD3 protein (hCD3-epsilon/hCD3-delta) with either a human Fc tag (hFcΔAdp/hFc) or a … (human, UniProt P07766 23-126; P04234 22-105)
- T1 construct: also called hCD3ε/δ; not shown: Fc tag: human (hFcΔAdp/hFc)
- T1 sequence (P07766 23-126 limits assumed, stated change not applied, chain 1 of 2): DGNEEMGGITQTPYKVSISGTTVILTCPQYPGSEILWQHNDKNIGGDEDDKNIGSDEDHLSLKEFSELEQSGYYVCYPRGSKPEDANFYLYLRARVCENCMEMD
- T1 sequence (P04234 22-105 limits assumed, stated change not applied, chain 2 of 2): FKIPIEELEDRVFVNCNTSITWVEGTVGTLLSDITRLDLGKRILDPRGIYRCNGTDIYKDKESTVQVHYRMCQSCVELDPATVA
- Protocol: SPR Biacore 25C antigen-capture
For each of the binders below, state its koff.
Answers are plain numbers, in s⁻¹.

Use the examples below as a reference point.
>>> test_result("H2M2862N (antibody, mouse IgG2, V domains shown, H2M: mouse IgG2 Fc, human variable regions; divalent) VH: QVQLVESGGGVVQPGRSLRLSCAASGFTFRSYGMHWVRQAPGKGLEWVAMIYYDGNNKKYADSVRGRFTISRDNSKNTLYLQMNSLRVEDTAVYFCARGPGYNWLDPWGQGTLVTVSS VL: EIVMTQSPATLSVSPGERATLSCRASQSVSRNLAWYQQKPGQAPRLLIYGASTRATDIPARFSGSGSGTEFILNISSLQSEDFALYYCQQYSNWPLTFGGGTEVEIK")
0.000321
>>> test_result("H1H5786B (antibody, human IgG1, V domains shown, H1H: human IgG1 Fc; divalent) VH: QVQLVESGAEVKKPGASVKVSCKTSGYTFTGYYMHWIRQAPGQGLEWMGWINPKSGGTNYAQKFQGRVTMTRDTSISTAYMELSRLRSDDMAVYYCARMGDGAVFDFWGQGTLVTVSS VL: AIQMTQSPSSLSASVGDRVTITCRASQRISSFLNWYQQKPGKAPKLLIYTASNLQNGVPSRFSGSGSGTDFTLTISSLQPEDFATYYCQQSYRTPLTFGGGTKVEIKR")
0.000424

Now take the following binder into account.
koff measured on H1H5791B (antibody, human IgG1, V domains shown, H1H: human IgG1 Fc; divalent) VH: QVQLVESGAEVKKPGASVKVSCKTSGYTLSGYYMHWMRQAPGQGLEWMGWINPKSGVTNYAQKFQDRVAMTRDTSISTAYMELSRLRSDDTAVYYCARMGDGAVFDFWAQGTLVTVSS VL: DIQLTQSPSSLSASVGDRVTITCRASQRISSFLNWYQQKPGKAPKLLIYTASNLQNGVPSRFSGSGSGTDFTLTISSLQPEDFATYYCQQSYRTPLTFGGGTKLEIKR = 0.00034
